Biological target: serotoninergic 5-HT6 receptor (Homo sapiens)
Experiment: Binding assay 5-HT6 (h), [3H]LSD, CHO cells
Parameters: expressed in transfected cells; host or cells: CHO cells
Conditions: read-out: 5-HT6
assayEndpoint: inhibition at 1 µM (%)
Value expressed in %; do not type the unit.

These solved cases illustrate the format of a correct answer.
O=S(=O)(NCCCCN1CCN(c2cccc3[nH]ccc23)CC1)c1ccc(F)cc1 ... 42
O=c1[nH]c2ccc(S(=O)(=O)NCCCCN3CCN(c4noc5ccccc45)CC3)cc2o1 ... 94
N#Cc1cccc(S(=O)(=O)NCCCCN2CCC(c3noc4cc(F)ccc34)CC2)c1 ... 81

We next turn to a different compound, shown below.
Field inhibition at 1 µM (entry `O=S(=O)(NCCN1CC=C(c2c[nH]c3ccc(F)cc23)CC1)c1cccc(F)c1` ) reads 92

====

Target: histaminergic H1 receptor (Homo sapiens, UniProt P35367)
Sequence (P35367 whole entry): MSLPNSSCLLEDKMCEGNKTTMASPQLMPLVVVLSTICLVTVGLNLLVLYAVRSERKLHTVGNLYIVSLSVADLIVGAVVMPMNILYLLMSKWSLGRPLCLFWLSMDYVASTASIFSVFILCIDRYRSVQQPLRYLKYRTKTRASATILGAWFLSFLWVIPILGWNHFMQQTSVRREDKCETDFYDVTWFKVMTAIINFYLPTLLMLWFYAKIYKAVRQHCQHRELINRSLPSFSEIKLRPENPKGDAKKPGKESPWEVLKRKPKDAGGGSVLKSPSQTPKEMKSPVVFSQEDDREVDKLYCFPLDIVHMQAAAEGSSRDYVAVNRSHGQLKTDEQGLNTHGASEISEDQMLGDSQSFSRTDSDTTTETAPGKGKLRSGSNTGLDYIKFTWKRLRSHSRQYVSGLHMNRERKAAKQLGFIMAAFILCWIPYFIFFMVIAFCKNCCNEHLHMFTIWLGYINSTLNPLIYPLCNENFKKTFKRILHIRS
Assay: Binding assay H1 (h), [3H]pyrilamine, HEK-293 cells
Parameters: expressed in transfected cells; host or cells: HEK-293 cells
Conditions: read-out: H1 [%]
The reader will find reported inhibition at 1 µM values listed item by item below.
Value expressed in %; do not type the unit.

These solved cases illustrate the format of a correct answer.
O=c1[nH]c2ccc(S(=O)(=O)NCCN3CCN(c4nsc5ccccc45)CC3)cc2o1 ... 79
Cc1cccc(S(=O)(=O)NCCCN2CCC(c3noc4cc(F)ccc34)CC2)c1 ... 88
O=S(=O)(NCCCCN1CCC(c2noc3cc(F)ccc23)CC1)c1cccc2ccccc12 ... 80
O=S(=O)(NCCCCN1CCN(c2noc3ccccc23)CC1)c1c[nH]c2ncccc12 ... 85
O=S(=O)(NCCCCN1CCC(c2noc3cc(F)ccc23)CC1)c1ccc2cc(Cl)ccc2c1 ... 91
Cc1cccc(S(=O)(=O)NCCCN2CCN(c3nsc4ccccc34)CC2)c1 ... 93
O=S(=O)(NCCN1CCN(c2nsc3ccccc23)CC1)c1ccc2ccccc2c1 ... 81

We next turn to a different compound, shown below.
Field inhibition at 1 µM (entry `O=S(=O)(NCCCN1CCC(c2noc3cc(F)ccc23)CC1)c1ccc2cn[nH]c2c1` ) reads 97

====

Target: serotoninergic 5-HT1A receptor (Homo sapiens, UniProt P08908)
Sequence (P08908 whole entry): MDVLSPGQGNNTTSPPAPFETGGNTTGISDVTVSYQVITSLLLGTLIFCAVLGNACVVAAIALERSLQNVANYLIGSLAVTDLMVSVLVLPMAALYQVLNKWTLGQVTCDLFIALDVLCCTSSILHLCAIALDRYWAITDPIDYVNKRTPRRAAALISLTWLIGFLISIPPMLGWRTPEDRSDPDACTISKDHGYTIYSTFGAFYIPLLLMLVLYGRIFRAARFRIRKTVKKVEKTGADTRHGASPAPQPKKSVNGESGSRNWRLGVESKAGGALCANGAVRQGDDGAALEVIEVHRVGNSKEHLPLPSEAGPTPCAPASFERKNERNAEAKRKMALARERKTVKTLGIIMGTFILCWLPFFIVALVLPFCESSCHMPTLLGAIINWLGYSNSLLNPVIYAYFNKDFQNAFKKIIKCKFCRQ
Test: Cellular functional assay, serotoninergic 5-HT1A receptor (agonism/antagonism)
Assay type: cell-based
Conditions: CHO; read-out: 5-HT1A-antag. [%]
assayEndpoint: inhibition at 1 µM

O=S(=O)(NCCCCN1CCN(c2nsc3ccccc23)CC1)c1ccc2cc(Cl)ccc2c1 ... 20%

The compound `Cc1cccc(S(=O)(=O)NCCCN2CCN(c3nsc4ccccc34)CC2)c1` , when measured on serotoninergic 5-HT1A receptor (Homo sapiens, UniProt P08908), yielded inhibition at 1 µM of 51%

The compound `O=c1[nH]c2cccc(N3CCN(CCCNS(=O)(=O)c4cccc5ccccc45)CC3)c2[nH]1` , when measured on serotoninergic 5-HT1A receptor (Homo sapiens, UniProt P08908), yielded inhibition at 1 µM of 73%

The compound `O=c1[nH]c2cccc(N3CCN(CCCNS(=O)(=O)c4ccc5ccccc5c4)CC3)c2[nH]1` , when measured on serotoninergic 5-HT1A receptor (Homo sapiens, UniProt P08908), yielded inhibition at 1 µM of 75%

The compound `O=S(=O)(NCCCCN1CCN(c2cccc3[nH]ccc23)CC1)c1cccc(F)c1` , when measured on serotoninergic 5-HT1A receptor (Homo sapiens, UniProt P08908), yielded inhibition at 1 µM of 27%

The compound `O=S(=O)(NCCCCN1CCN(c2nsc3ccccc23)CC1)c1cc2ccc(Cl)cc2s1` , when measured on serotoninergic 5-HT1A receptor (Homo sapiens, UniProt P08908), yielded inhibition at 1 µM of 42%

The compound `Cc1[nH]c2ccc(Cl)cc2c1C1=CCN(CCNS(=O)(=O)c2cccc(Cl)c2)CC1` , when measured on serotoninergic 5-HT1A receptor (Homo sapiens, UniProt P08908), yielded inhibition at 1 µM of 7%

The compound `Cc1c(S(=O)(=O)NCCCCN2CCN(c3nsc4ccccc34)CC2)sc2ccc(F)cc12` , when measured on serotoninergic 5-HT1A receptor (Homo sapiens, UniProt P08908), yielded inhibition at 1 µM of 35%

====

Molecular target: dopaminergic D2 receptor (Homo sapiens)
Sequence (P14416 whole entry): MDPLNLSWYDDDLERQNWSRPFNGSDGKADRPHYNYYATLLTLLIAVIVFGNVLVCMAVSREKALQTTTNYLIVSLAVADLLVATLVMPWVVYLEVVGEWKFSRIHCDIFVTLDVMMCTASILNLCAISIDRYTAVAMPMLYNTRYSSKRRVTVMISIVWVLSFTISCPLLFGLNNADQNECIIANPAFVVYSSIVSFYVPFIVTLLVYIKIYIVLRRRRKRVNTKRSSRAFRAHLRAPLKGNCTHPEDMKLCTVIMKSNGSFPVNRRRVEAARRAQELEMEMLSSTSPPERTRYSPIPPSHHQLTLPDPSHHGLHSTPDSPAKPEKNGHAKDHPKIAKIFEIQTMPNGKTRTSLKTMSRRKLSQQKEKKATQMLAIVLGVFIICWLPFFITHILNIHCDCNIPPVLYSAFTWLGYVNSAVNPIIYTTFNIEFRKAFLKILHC
Assay: Cellular functional assay, dopaminergic D2 receptor (agonism/antagonism)
Type: cell-based
Conditions: HEK293; read-out: D2-antag. [%]
The reader will find reported inhibition at 1 µM values listed item by item below.
Value expressed in %; do not type the unit.

These solved cases illustrate the format of a correct answer.
O=c1[nH]c2ccc(S(=O)(=O)NCCCN3CCN(c4nsc5ccccc45)CC3)cc2o1 ... 85
N#Cc1cccc(S(=O)(=O)NCCCN2CCC(c3noc4cc(F)ccc34)CC2)c1 ... 88
Cc1cccc(S(=O)(=O)NCCCN2CCN(c3nsc4ccccc34)CC2)c1 ... 91
Cc1cccc(S(=O)(=O)NCCCN2CCC(c3noc4cc(F)ccc34)CC2)c1 ... 99
O=S(=O)(NCCCN1CCC(c2noc3cc(F)ccc23)CC1)c1ccc2cc(Cl)ccc2c1 ... 80

The compound `O=c1[nH]c2cccc(N3CCN(CCCNS(=O)(=O)c4ccc5ccccc5c4)CC3)c2[nH]1` , when measured on dopaminergic D2 receptor (Homo sapiens), yielded inhibition at 1 µM of 97

The compound `O=S(=O)(NCCCCN1CCN(c2cccc3[nH]ccc23)CC1)c1ccc(F)c(F)c1` , when measured on dopaminergic D2 receptor (Homo sapiens), yielded inhibition at 1 µM of 99

The compound `Cc1c(S(=O)(=O)NCCCCN2CCN(c3nsc4ccccc34)CC2)sc2ccc(F)cc12` , when measured on dopaminergic D2 receptor (Homo sapiens), yielded inhibition at 1 µM of 74

====

Biological target: serotoninergic 5-HT6 receptor (Homo sapiens, UniProt P50406)
Sequence (P50406 whole entry): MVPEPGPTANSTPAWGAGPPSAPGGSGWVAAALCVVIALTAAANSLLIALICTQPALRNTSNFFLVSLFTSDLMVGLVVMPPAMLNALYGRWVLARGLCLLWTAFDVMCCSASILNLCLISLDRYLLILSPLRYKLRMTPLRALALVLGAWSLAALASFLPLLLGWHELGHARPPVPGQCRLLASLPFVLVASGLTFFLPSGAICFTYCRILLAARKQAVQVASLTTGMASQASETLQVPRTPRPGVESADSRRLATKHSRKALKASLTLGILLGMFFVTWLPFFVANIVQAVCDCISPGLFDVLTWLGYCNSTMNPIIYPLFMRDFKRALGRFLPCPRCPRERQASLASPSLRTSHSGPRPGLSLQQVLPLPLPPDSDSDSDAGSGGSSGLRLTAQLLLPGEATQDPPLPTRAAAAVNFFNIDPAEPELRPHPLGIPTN
Test: Binding assay 5-HT6 (h), [3H]LSD, CHO cells
Design: expressed in transfected cells; host or cells: CHO cells
Conditions: read-out: 5-HT6
Label true (1) when inhibition at 1 µM is at or above 80%; anything below gets false (0).

O=S(=O)(NCCCN1CCC(c2noc3cc(F)ccc23)CC1)c1cccc(Cl)c1 [Compound 106] ... true (1)

// query Dear colleague, could you confirm whether O=C1COc2c(cccc2N2CCN(CCCCNS(=O)(=O)c3ccc4ccccc4c3)CC2)N1 [Compound 427] has inhibition at 1 µM at or above 80%?
// result false (0)

// query Dear colleague, could you confirm whether O=S(=O)(NCCCCN1CCN(c2cccc3c2OCCO3)CC1)c1cccc(Br)c1 [Compound 391] has inhibition at 1 µM at or above 80%?
// result false (0)

// query Dear colleague, could you confirm whether O=S(=O)(NCCCCN1CCN(c2cccc3c2OCCO3)CC1)c1cccc(O)c1 [Compound 393] has inhibition at 1 µM at or above 80%?
// result false (0)

// query Dear colleague, could you confirm whether O=S(=O)(NCCCCN1CCN(c2nsc3ccccc23)CC1)c1cccc2scnc12 [Compound 243] has inhibition at 1 µM at or above 80%?
// result false (0)

// query Dear colleague, could you confirm whether O=C1COc2c(cccc2N2CCN(CCCCNS(=O)(=O)c3ccc(C(F)(F)F)cc3)CC2)N1 [Compound 429] has inhibition at 1 µM at or above 80%?
// result false (0)

====

The reader will find reported inhibition at 1 µM values listed item by item below.
Biological target: dopaminergic D3 receptor (Homo sapiens)
Sequence (P35462 whole entry): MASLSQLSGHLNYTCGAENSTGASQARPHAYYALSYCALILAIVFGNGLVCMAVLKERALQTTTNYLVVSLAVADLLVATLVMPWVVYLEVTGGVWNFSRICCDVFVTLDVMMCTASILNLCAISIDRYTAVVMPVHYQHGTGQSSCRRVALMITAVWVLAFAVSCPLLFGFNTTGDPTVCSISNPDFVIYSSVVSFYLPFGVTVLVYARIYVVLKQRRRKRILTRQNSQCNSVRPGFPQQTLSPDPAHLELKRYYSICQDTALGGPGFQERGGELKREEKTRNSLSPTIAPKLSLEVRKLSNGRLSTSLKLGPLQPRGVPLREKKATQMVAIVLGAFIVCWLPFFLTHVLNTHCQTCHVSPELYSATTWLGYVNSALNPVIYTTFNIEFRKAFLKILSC
Assay: Binding assay D3 (h), [3H]methyl-spiperone, CHO cells
Design: expressed in transfected cells; host or cells: CHO cells
Conditions: read-out: D3 [%]
Value expressed in %; do not type the unit.

These solved cases illustrate the format of a correct answer.
O=S(=O)(NCCCN1CCN(c2cccc3c2OCCO3)CC1)c1ccc2cc(Cl)ccc2c1 ... 84
O=S(=O)(NCCCCN1CCC(c2noc3cc(F)ccc23)CC1)c1cccc(C(F)(F)F)c1 ... 97
O=C1COc2c(cccc2N2CCN(CCCCNS(=O)(=O)c3ccc(C(F)(F)F)cc3)CC2)N1 ... 104
O=S(=O)(NCCCCN1CCC(c2noc3cc(F)ccc23)CC1)c1ccc(Cl)s1 ... 95
O=c1[nH]c2ccc(S(=O)(=O)NCCCN3CCN(c4nsc5ccccc45)CC3)cc2o1 ... 97
O=S(=O)(NCCCN1CCN(c2nsc3ccccc23)CC1)c1ccc(Cl)cc1 ... 85
O=S(=O)(NCCN1CCN(c2nsc3ccccc23)CC1)c1ccc2ccccc2c1 ... 97
Cc1[nH]c2ccc(Cl)cc2c1C1=CCN(CCNS(=O)(=O)c2cccc(O)c2)CC1 ... 56
O=S(=O)(NCCCN1CCN(c2nsc3ccccc23)CC1)c1ccc(C(F)(F)F)cc1 ... 100
O=S(=O)(NCCCN1CCC(c2noc3cc(F)ccc23)CC1)c1cccc(C(F)(F)F)c1 ... 93

We next turn to a different compound, shown below.
The compound `O=S(=O)(NCCCCN1CCN(c2cccc3[nH]ccc23)CC1)c1cccc(C(F)(F)F)c1` , when measured on dopaminergic D3 receptor (Homo sapiens), yielded inhibition at 1 µM of 98

Entry source: patent US8822517B2
